// pIC50 collected for HDAC8 (Homo sapiens (Human), UniProt Q9BY41)
Bear in mind: pIC50 is minus log10 of a mol/L concentration; give just that figure.

molecule: O=C(C1CCS(=O)(=O)CC1)N(Cc1ccc(-c2noc(C(F)(F)F)n2)cc1F)c1cccc(C(F)(F)F)c1 [Example 490]
measuredAttribute: pIC50
measuredNumber: 5.47

# COCc1cc(=O)n(Cc2ccc(-c3noc(C(F)(F)F)n3)cn2)c2ccccc12 [Example 420] with HDAC8 (Homo sapiens (Human), UniProt Q9BY41): pIC50 is 6.00

# Cc1ncc(C(=O)N(Cc2ccc(-c3noc(C(F)(F)F)n3)cn2)c2cccc(F)c2)cn1 [Example 401] with HDAC8 (Homo sapiens (Human), UniProt Q9BY41): pIC50 is 5.48

# O=C1CC[C@@H](CO)N1c1ccc(-c2noc(C(F)(F)F)n2)c(F)c1 [Example 188] with HDAC8 (Homo sapiens (Human), UniProt Q9BY41): pIC50 is 7.42

# CNC(=O)OCc1ccc(-c2noc(C(F)(F)F)n2)cn1 [Example 194] with HDAC8 (Homo sapiens (Human), UniProt Q9BY41): pIC50 is 5.89

# CC1(C)CCCN1C(=O)[C@@H]1CCC(=O)N1c1ccc(-c2noc(C(F)(F)F)n2)c(F)c1 [Example 342] with HDAC8 (Homo sapiens (Human), UniProt Q9BY41): pIC50 is 4.60

# FC(F)(F)c1nc(-c2ccc(N3CCCCC3c3cccnc3)nc2)no1 (racemic) [Example 157] with HDAC8 (Homo sapiens (Human), UniProt Q9BY41): pIC50 is 5.48

# O=C1COC[C@@H](c2nc(-c3ccccn3)no2)N1c1ccc(-c2noc(C(F)(F)F)n2)cc1 [Example 34] with HDAC8 (Homo sapiens (Human), UniProt Q9BY41): pIC50 is 6.55
